# TARGET OR SYSTEM: Dihydroorotate dehydrogenase (quinone), mitochondrial (Plasmodium falciparum (isolate 3D7)) (UniProt Q08210)
# Sequence (Q08210 whole entry, looked up): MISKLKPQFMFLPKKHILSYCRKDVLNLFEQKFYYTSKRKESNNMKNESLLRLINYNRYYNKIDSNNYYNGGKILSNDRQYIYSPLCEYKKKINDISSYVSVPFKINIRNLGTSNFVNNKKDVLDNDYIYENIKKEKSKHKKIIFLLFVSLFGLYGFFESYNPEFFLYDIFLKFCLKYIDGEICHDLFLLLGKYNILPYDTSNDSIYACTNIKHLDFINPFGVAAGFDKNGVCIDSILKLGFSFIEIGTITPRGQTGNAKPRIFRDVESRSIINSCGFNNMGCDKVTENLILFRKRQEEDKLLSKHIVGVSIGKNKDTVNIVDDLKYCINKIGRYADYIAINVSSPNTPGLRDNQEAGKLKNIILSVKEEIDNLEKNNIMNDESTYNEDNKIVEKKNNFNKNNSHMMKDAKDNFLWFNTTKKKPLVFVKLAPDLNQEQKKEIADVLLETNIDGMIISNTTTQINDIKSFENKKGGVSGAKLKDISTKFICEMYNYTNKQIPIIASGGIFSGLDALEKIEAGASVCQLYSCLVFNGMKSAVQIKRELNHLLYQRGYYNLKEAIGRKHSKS
# MEASUREMENT DESCRIPTION: PfDHODH enzyme inhibitors, primary screen, biochemical, C-terminal His tag, absorbance 600 nm (AID 1175);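 further: recombinant parasite enzyme with a five histidine tag at its C terminus; test concentration not given here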
# RUN CONDITIONS: DCIP absorbance 600 nm, higher = more signal, called active from +8 up or from −8 down
PROPERTY LABEL: composite z-score
Output spec: single numeric token, no unit.

{"STRUCTURE NOTATION": "C[n+]1ccc(CCCO)cc1", "composite z-score": -4.35}

INPUT: Quick one: composite z-score for `CC(C)CN1C(=O)[C@@]2(c3ccc([N+](=O)[O-])cc3)CC(=O)N(CC34CC5CC(CC(C5)C3)C4)[C@@H]2c2ccc(CO)cc21` ?
OUTPUT: -4.84

INPUT: Which composite z-score is listed for `COCCOC(=O)N1C(=O)[C@@]2(c3cc(C#CC4(O)CCCCCC4)ccc31)[C@H](c1ccccc1OCCO)N1[C@H](c3ccccc3)[C@H](c3ccccc3)OC(=O)[C@H]1[C@@H]2C(N)=O` ?
OUTPUT: 0.173

INPUT: Sample `COc1ccccc1CN1C(=O)c2ccccc2[C@@H](C(=O)NC(C)C)[C@@H]1c1ccc(CO)cc1` — what was its composite z-score?
OUTPUT: -0.469

INPUT: Value lookup for composite z-score; key = `O=C(CCCCCCC(=O)Nc1ccccc1)N/N=C/c1ccccc1`
OUTPUT: -0.543

INPUT: Request the reported composite z-score associated with `COCCCNC(=O)[C@@]1(Sc2ccc(C)cc2)CC(=O)N(C2Cc3ccccc3C2)[C@@H]1c1ccc(CO)cc1I`
OUTPUT: -0.591

INPUT: Could you share which composite z-score value was measured for `COc1cc2c(cc1OC)CN(C(=O)[C@H]1[C@@H]3C(=O)O[C@@H](c4ccccc4)[C@@H](c4ccccc4)N3[C@@H](c3ccc(OCCO)cc3)[C@]13C(=O)Nc1ccc(C#CCCO)cc13)CC2` ?
OUTPUT: 0.129
